assay: Inhibition over 48 hr of BAL strain HIV infrction of HeLa Magi cells expressing CCR5
property-name: IC50 (nM)

C=CCN(c1cccnc1)C1CCN(C[C@H]2CN(C(=O)C3CCCCC3)C[C@@H]2c2ccccc2)CC1
12
O=C(O)[C@@H](CC1CCC1)N1C[C@H](CN2CCC(N(CC3CC3)c3ncccn3)CC2)[C@@H](c2cccc(F)c2)C1
11
CCCN(c1cncnc1)C1CCN(C[C@H]2CN([C@H](CC3CCC3)C(=O)O)C[C@@H]2c2cccc(F)c2)CC1
11
CCN(c1ncccn1)C1CCN(C[C@H]2CN([C@H](CC3CCC3)C(=O)O)C[C@@H]2c2cccc(F)c2)CC1
100

FYI, the data here is from BindingDB's records for doi:10.1016/s0960-894x(02)00988-5.
